# TARGET OR TEST SYSTEM: PI3Kγ (p120γ) (Homo sapiens)
# Construct: purchased Promega V1761
# Sequence (P48736 whole entry): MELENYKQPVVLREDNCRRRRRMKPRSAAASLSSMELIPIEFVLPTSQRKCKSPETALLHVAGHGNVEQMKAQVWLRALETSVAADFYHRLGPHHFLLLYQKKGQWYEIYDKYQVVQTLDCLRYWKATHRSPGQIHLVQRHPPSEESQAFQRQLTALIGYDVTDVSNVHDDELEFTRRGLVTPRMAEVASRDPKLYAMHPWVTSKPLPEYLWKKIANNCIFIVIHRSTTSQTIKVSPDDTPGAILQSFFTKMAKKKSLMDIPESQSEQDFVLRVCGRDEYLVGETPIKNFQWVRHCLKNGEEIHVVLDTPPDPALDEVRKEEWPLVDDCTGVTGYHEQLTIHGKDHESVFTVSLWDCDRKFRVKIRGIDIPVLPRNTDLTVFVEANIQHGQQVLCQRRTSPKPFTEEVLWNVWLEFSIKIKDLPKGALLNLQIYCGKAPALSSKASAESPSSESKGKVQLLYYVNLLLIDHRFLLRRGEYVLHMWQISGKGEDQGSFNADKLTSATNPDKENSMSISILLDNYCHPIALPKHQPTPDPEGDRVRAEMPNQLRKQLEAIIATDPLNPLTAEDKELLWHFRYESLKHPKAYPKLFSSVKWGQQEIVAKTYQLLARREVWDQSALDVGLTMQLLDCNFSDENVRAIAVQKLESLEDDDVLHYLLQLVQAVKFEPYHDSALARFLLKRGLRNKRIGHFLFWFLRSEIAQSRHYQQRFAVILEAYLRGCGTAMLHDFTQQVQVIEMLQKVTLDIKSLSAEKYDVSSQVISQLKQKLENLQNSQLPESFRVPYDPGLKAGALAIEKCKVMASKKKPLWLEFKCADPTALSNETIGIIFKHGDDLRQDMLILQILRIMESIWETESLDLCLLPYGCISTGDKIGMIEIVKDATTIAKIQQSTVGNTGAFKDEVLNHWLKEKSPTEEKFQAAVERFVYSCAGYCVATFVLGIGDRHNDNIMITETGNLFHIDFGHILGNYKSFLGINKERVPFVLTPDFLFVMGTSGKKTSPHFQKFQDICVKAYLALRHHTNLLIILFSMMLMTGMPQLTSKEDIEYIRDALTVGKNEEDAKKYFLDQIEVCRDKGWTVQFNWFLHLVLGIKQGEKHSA
# ASSAY OVERVIEW: Inhibition of PI3K kinase activity (ADP Glo), PI3Kγ
# ASSAY CONDITIONS: Table 1, p120γ, read-out: biochemical potency (PI3Kγ IC50)
pIC50: −log10 of the molar value.
Parameter: pIC50. Scope: all listed entries.

>  <SMILES DATA>
Cc1cc(-c2ccn3nc(N)c(C(=O)N[C@@H]4CCC[C@H]4O)c3n2)cc2c1C(=O)N([C@@H](C)C1CC1)C2

>  <pIC50>
> 7.00

$$$$
>  <SMILES DATA>
C[C@@H](C1CC1)N1Cc2cc(-c3ccn4nc(N)c(C(=O)NCCC(C)(C)O)c4n3)cc(C(F)(F)F)c2C1=O

>  <pIC50>
> 7.00

$$$$
>  <SMILES DATA>
C[C@@H](C1CC1)N1Cc2cc(-c3ccn4nc(N)c(C(=O)NC5COC5)c4n3)cc(NS(C)(=O)=O)c2C1=O

>  <pIC50>
> 7.00

$$$$
>  <SMILES DATA>
C[C@H](CO)NC(=O)c1c(N)nn2ccc(-c3cc4c(c(OC(F)(F)F)c3)C(=O)N([C@@H](C)C(F)(F)F)C4)nc12

>  <pIC50>
> 7.00

$$$$
>  <SMILES DATA>
C[C@@H](C1CC1)N1Cc2cc(-c3ccn4nc(N)c(C(=O)N[C@H]5CC[C@@](C)(O)CC5)c4n3)cc(S(C)(=O)=O)c2C1=O

>  <pIC50>
> 7.00

$$$$
>  <SMILES DATA>
C[C@@H](C1CC1)N1Cc2cc(-c3ccn4nc(N)c(C(=O)N[C@H]5CC[C@](O)(C(F)(F)F)CC5)c4n3)cc(N3CC[C@@H](O)C3)c2C1=O

>  <pIC50>
> 7.00

$$$$
>  <SMILES DATA>
C[C@@H](C1CC1)N1Cc2cc(-c3ccn4nc(N)c(C(=O)NCCC(C)(C)O)c4n3)cc(NS(C)(=O)=O)c2C1=O

>  <pIC50>
> 7.00

$$$$
>  <SMILES DATA>
C[C@@H](C1CC1)N1Cc2cc(-c3ccn4nc(N)c(C(=O)NCCCCO)c4n3)cc(C(F)(F)F)c2C1=O

>  <pIC50>
> 7.00

$$$$

Enquiry: Look at this compound and give its reported pIC50. C[C@@H](C1CC1)N1Cc2cc(-c3ccn4nc(N)c(C(=O)N[C@@H](CO)C5CC5)c4n3)cc(C3CC3)c2C1=O
Return: > 7.00

Enquiry: State the recorded pIC50 for this entry: C[C@H](N1Cc2cc(-c3ccn4nc(N)c(C(=O)N[C@@H](CO)C5CC5)c4n3)cc(NS(C)(=O)=O)c2C1=O)C(F)(F)F
Return: > 7.00

Enquiry: // pIC50 lookup, key: C[C@@H](C1CC1)N1Cc2cc(-c3ccn4nc(N)c(C(=O)NC5CC5)c4n3)cc(S(=O)(=O)C3CCC3)c2C1=O
Return: > 7.00

Enquiry: Any idea what its pIC50 is? The compound is Cc1cc(-c2ccn3nc(N)c(C(=O)N[C@@H]4CC[C@@H](O)C4)c3n2)cc2c1C(=O)N([C@@H](C)C1CC1)C2
Return: > 7.00

Enquiry: May I ask what pIC50 has been recorded for C[C@@H](C1CC1)N1Cc2cc(-c3ccn4nc(N)c(C(=O)NC5CC5)c4n3)cc(NS(C)(=O)=O)c2C1=O ?
Return: > 7.00
